Cited source: patent US9932309B2

Test system: mTGR5 (Mus musculus, UniProt Q80SS6)
Sequence (Q80SS6 whole entry): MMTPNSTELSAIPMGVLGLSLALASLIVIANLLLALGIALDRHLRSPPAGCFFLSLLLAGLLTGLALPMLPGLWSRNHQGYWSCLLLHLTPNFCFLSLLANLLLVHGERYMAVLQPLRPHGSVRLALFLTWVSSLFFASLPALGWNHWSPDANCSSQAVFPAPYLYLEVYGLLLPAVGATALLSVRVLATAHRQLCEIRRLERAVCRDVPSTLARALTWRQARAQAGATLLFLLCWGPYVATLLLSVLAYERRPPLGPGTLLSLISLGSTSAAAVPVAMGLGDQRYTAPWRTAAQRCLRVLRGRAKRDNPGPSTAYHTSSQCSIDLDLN
Protocol summary: TGR5/CRE Luciferase Assay (mTGR5)
Experimental conditions: HEK 293 cells co-transfected with pCMV AC6-TGR5m and pCRE TA-Luciferase; overnight incubation
Readout label: EC50 (nM)

>  <Compound>
C=C(C)CN1C(=O)CC(c2ccc(Cl)cc2)C(C(=O)OCc2ccccc2)=C1C (centres unmarked)

>  <EC50 [nM]>
1400

$$$$
>  <Compound>
CCOC(=O)C1=C(c2ccccc2)N(C)C(=O)CC1c1ccc(Cl)cc1 (centres unmarked)

>  <EC50 [nM]>
2500

$$$$
>  <Compound>
COCCN1C(=O)CC(c2ccc(Cl)cc2)C(C(=O)OCc2cccc(C)c2)=C1C (centres unmarked)

>  <EC50 [nM]>
300

$$$$
>  <Compound>
CC1=C(C(=O)OCc2ccccc2)C(c2ccc(F)cc2)CC(=O)N1 (centres unmarked)

>  <EC50 [nM]>
4200

$$$$
>  <Compound>
CC1=C(C(=O)OCc2ccc(OCCCS(=O)(=O)O)cc2)[C@H](c2ccc(Cl)cc2)CC(=O)N1C[C@H]1CCCO1.N

>  <EC50 [nM]>
26

$$$$
>  <Compound>
CC1=C(C(=O)OCc2ccc(F)cc2Cl)C(c2ccc(Cl)cc2)CC(=O)N1C (centres unmarked)

>  <EC50 [nM]>
1300

$$$$

1: CC1=C(C(=O)OCc2ccc(C(F)(F)F)cc2)C(c2ccc(Cl)cc2)CC(=O)N1C (centres unmarked)
2: COCCN1C(=O)CC(c2ccc(C#N)cc2)C(C(=O)OCc2ccccc2OC)=C1C (centres unmarked)
Enquiry: Pick the one with the larger EC50: 1 vs 2 // return label of chosen record
Return: 1

====

Test system: hTGR5 (Homo sapiens, UniProt Q8TDU6)
Sequence (Q8TDU6 whole entry): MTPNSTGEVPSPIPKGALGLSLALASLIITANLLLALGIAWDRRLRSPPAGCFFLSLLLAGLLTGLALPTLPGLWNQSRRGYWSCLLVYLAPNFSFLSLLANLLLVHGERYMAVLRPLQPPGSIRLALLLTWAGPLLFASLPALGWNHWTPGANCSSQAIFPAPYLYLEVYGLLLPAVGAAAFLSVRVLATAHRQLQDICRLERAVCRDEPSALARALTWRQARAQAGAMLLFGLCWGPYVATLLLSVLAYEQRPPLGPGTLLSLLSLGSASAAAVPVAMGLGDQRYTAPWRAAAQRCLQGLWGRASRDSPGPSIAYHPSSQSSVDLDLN
Protocol summary: TGR5/CRE Luciferase Assay (hTGR5)
Experimental conditions: HEK 293 cells co-transfected with pCMV tag4b-TGR5h and pCRE TA-Luciferase; overnight incubation
Protocol: TGR5/CRE Luciferase Assay In the following Tables TGR5 activation by compounds of the invention and subsequent increase in intracellular cAMP were evaluated using a luciferase reporter gene assay. […] Luminescence was read with a Mithras plate reader (Berthold) or a Victor3™ V1420 (Perkin Elmer). […]
Readout label: EC50 (nM)

Look over these answered cases.
>  <Molecule>
CC1=C(C(=O)OCc2ccccc2)C(c2ccc(C(F)(F)F)cc2)CC(=O)N1 (centres unmarked) [Compound 9]

>  <Test system>
hTGR5 (Homo sapiens, UniProt Q8TDU6)

>  <Readout label>
EC50

>  <Number>
1500

$$$$
>  <Molecule>
CC1=C(C(=O)OCc2ccccc2)C(c2ccc(Cl)cc2)CC(=O)N1CC(N)=O (centres unmarked) [Compound 60]

>  <Test system>
hTGR5 (Homo sapiens, UniProt Q8TDU6)

>  <Readout label>
EC50

>  <Number>
13500

$$$$
>  <Molecule>
COc1ccc(C2CC(=O)NC(C)=C2C(=O)OCc2ccccc2)cc1 (centres unmarked) [Compound 6]

>  <Test system>
hTGR5 (Homo sapiens, UniProt Q8TDU6)

>  <Readout label>
EC50

>  <Number>
12800

$$$$

a: CC1=C(C(=O)OCc2ccccc2)C(c2ccc(Cl)cc2)CC(=O)N1CCN1CCCCC1 (centres unmarked) [Compound 56]
b: CC1=C(C(=O)OCc2ccccc2)C(c2ccc(C)cc2)CC(=O)N1 (centres unmarked) [Compound 3]
Enquiry: Lab log: flag the item ( a or b ) with the smaller EC50 figure. // return label of chosen record
Return: a
(a: 3600 nM, b: 7400 nM)

A: CC1=C(C(=O)OCc2ccccc2)C(c2ccc(Cl)cc2)CC(=O)N1CC1CCC1 (centres unmarked) [Compound 44]
B: COCCN1C(=O)CC(c2ccc(Cl)cc2)C(C(=O)OCc2ccccc2Cl)=C1C (centres unmarked) [Example 87]
Enquiry: Lab log: flag the item ( A or B ) with the smaller EC50 figure. // return label of chosen record
Return: A

P: CC1=C(C(=O)OCc2ccccc2)C(c2ccc(Cl)cc2)CC(=O)N1CCS(C)(=O)=O (centres unmarked) [Compound 62]
Q: CC1=C(C(=O)OCc2ccccc2)C(c2ccc(Cl)cc2)CC(=O)N1CCN1CCCC1 (centres unmarked) [Compound 55]
R: CC1=C(C(=O)OCc2ccc(OCCCS(=O)(=O)O)cc2)[C@H](c2ccc(Cl)nc2)CC(=O)N1C[C@H]1CCCO1.N [Example 166]
S: COCCN1C(=O)CC(c2ccc(Cl)cc2)C(C(=O)NCc2ccccc2)=C1C (centres unmarked) [Example 75]
Enquiry: Rank by EC50 (largest to smallest). Provide the ranking by listing each label in its place in the requested order.
Return: S, Q, P, R

P: CC1=C(C(=O)OCc2ccccc2)C(c2ccc(F)cc2)CC(=O)N1 (centres unmarked) [Compound 13]
Q: COCCN1C(=O)CC(c2ccc(Cl)cc2)C(C(=O)OCC(=O)c2ccccc2)=C1C (centres unmarked) [Example 112]
R: COCCN1C(=O)CC(c2ccc(-c3ccccc3)cc2)C(C(=O)OCc2ccccc2)=C1C (centres unmarked) [Example 123]
S: CC1=C(C(=O)OCc2ccc(OCCS(=O)(=O)O)cc2)[C@H](c2ccc(Cl)cc2)CC(=O)N1C[C@H]1CCCO1.N [Example 144]
T: COCCN1C(=O)CC(c2ccc(Cl)cc2)C(C(=O)OCc2ccccc2C)=C1C (centres unmarked) [Example 98]
Enquiry: Put the molecules in ascending order of EC50. Provide the ranking by listing each label in its place in the requested order.
Return: S, T, R, P, Q

====

Test system: mTGR5 (Mus musculus, UniProt Q80SS6)
Construct: expressed in transfected cells; host or cells: HEK293 cells, transiently co-transfected with the pCRE TA-Luciferase reporter
Protocol summary: TGR5/CRE Luciferase Assay (mTGR5)
Type: cell-based
Experimental conditions: percentage of the 10 μM LCA value; HEK 293 cells transfected with mTGR5
Readout label: mTGR5 % trans (%)

>  <Compound>
COc1ccccc1C1CC(=O)NC(C)=C1C(=O)OCc1ccccc1 (stereo not shown)

>  <Readout label>
mTGR5 % trans

>  <Number>
18

$$$$
>  <Compound>
CCOC(=O)C1=C(c2ccccc2)N(C)C(=O)CC1c1ccc(Cl)cc1 (stereo not shown)

>  <Readout label>
mTGR5 % trans

>  <Number>
53

$$$$
>  <Compound>
COCCN1C(=O)CC(c2ccc(Cl)cc2)C(C(=O)OCc2ccccc2OC(F)(F)F)=C1C (stereo not shown)

>  <Readout label>
mTGR5 % trans

>  <Number>
63

$$$$
>  <Compound>
CC1=C(C(=O)OCc2ccccn2)[C@H](c2ccc(Cl)cc2)CC(=O)N1C[C@H]1CCCO1 (racemic)

>  <Readout label>
mTGR5 % trans

>  <Number>
74

$$$$
>  <Compound>
CC1=C(C(=O)OCc2ccccc2)C(c2ccc(Cl)cc2)CC(=O)N1CC1CCC1 (stereo not shown)

>  <Readout label>
mTGR5 % trans

>  <Number>
77

$$$$
>  <Compound>
CC1=C(C(=O)OCc2ccccc2)C(c2ccc(Cl)cc2)CC(=O)N1CCCN(C)C (stereo not shown)

>  <Readout label>
mTGR5 % trans

>  <Number>
0

$$$$

P: CC1=C(C(=O)OCc2ccccc2)C(c2ccccc2C(F)(F)F)CC(=O)N1 (stereo not shown)
Q: COCCN1C(=O)CC(c2ccc(Cl)cc2)C(C(=O)OCc2cccc(Cl)c2)=C1C (stereo not shown)
Enquiry: Pick the one with the larger mTGR5 % trans: P vs Q // return label of chosen record
Return: Q

a: COc1ccccc1COC(=O)C1=C(C)N(C[C@H]2CCCO2)C(=O)C[C@@H]1c1ccc(Cl)nc1
b: CC1=C(C(=O)OCc2ccccc2)C(c2ccc(Cl)cc2)CC(=O)N1CC1C[N+](C)(C)C1.[I-] (stereo not shown)
Enquiry: Pick the one with the larger mTGR5 % trans: a vs b // return label of chosen record
Return: a
(a: 71%, b: 0%)

a: C=C(C)CN1C(=O)CC(c2ccc(Cl)cc2)C(C(=O)OCc2ccccc2)=C1C (stereo not shown)
b: COc1ccccc1COC(=O)C1=C(C)N(C[C@H]2CCCO2)C(=O)C[C@H]1c1cccnc1Cl (racemic)
Enquiry: Pick the one with the larger mTGR5 % trans: a vs b // return label of chosen record
Return: a

====

Test system: mTGR5 (Mus musculus, UniProt Q80SS6)
Protocol summary: TGR5/CRE Luciferase Assay (mTGR5)
Experimental conditions: HEK 293 cells co-transfected with pCMV AC6-TGR5m and pCRE TA-Luciferase; overnight incubation
Readout label: EC50 (nM)

Look over these answered cases.
>  <Compound>
COC(=O)CN1C(=O)CC(c2ccc(Cl)cc2)C(C(=O)OCc2ccccc2)=C1C (centres unmarked)

>  <Number>
200

$$$$
>  <Compound>
COCCOc1ccc(COC(=O)C2=C(C)N(C[C@@H]3CCCO3)C(=O)C[C@H]2c2ccc(Cl)cc2)cc1 (racemic)

>  <Number>
450

$$$$
>  <Compound>
CN1C=C(C(=O)NCc2ccccc2)C(c2ccc(Cl)cc2)CC1=O (centres unmarked)

>  <Number>
1800

$$$$
>  <Compound>
COCCN1C(=O)CC(c2ccc(Cl)cc2)C(C(=O)OCc2ccc(OC)cc2)=C1C (centres unmarked)

>  <Number>
200

$$$$
>  <Compound>
COc1ccc(COC(=O)C2=C(C)N(C)C(=O)CC2c2ccc(Cl)cc2)cc1OC (centres unmarked)

>  <Number>
400

$$$$
>  <Compound>
COCCN1C(=O)CC(c2ccc(Cl)cc2)C(C(=O)OCc2ccccc2C)=C1C (centres unmarked)

>  <Number>
500

$$$$

1: CN1C=C(C(=O)OCc2ccccc2)C(c2ccc(Cl)cc2)CC1=O (centres unmarked)
2: COCCN1C(=O)CC(c2ccc(Cl)cc2)C(C(=O)OCc2ccc(OCCCN(C)C)cc2)=C1C (centres unmarked)
Enquiry: Pick the one with the larger EC50: 1 vs 2 // return label of chosen record
Return: 1
